# protocol.notes: NCI Yeast Anticancer Drug Screen. Data for the CLN2oe strain (AID 163);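 further: 0% = growth of vehicle-only control cultures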
# condition.label: S. cerevisiae CLN2oe strain, at 3.7 µM, hits give high values
This is part of a sample that, as a whole, favours compounds with a hit. Of some 79,000 tested, about 15% had one in any assay.
measured.endpoint: growth inhibition (%)

• Nc1nnc(N)n1-n1c(N)nnc1N = -14
• CC1=C2C(=C[C@@](C)(CO)[C@@H]2O)C(=O)[C@](C)(O)C12CC2 = -8
• C[N+](CCCl)(CCCl)Cc1cccc2cccc([N+](=O)[O-])c12 = -10
• Nc1nc(N)c(-c2ccc(Cl)c(Cl)c2)c(CP(Cl)(Cl)(Cl)Br)n1 = -6
• O=[N+]([O-])c1ccc(N2CCC(CCCC3CCN(c4ccc([N+](=O)[O-])cc4[N+](=O)[O-])CC3)CC2)c([N+](=O)[O-])c1 = -3
• Cc1c(N)nc([C@H](CC(N)=O)NC[C@H](N)C(N)=O)nc1C(=O)N[C@H](C(=O)N[C@H](C)[C@@H](O)[C@H](C)C(=O)N[C@H](C(=O)NCCc1nc(-c2nc(C(=O)NCCC[S+](C)C)cs2)cs1)[C@@H](C)O)C(OC1OC(CO)C(O)C(O)C1OC1OC(CO)C(O)C(OC(N)=O)C1O)c1cnc[nH]1 (some centres not stated) = -7
• CCNCC(=O)O[C@]1(CC)C(=O)OCc2c1cc1n(c2=O)Cc2cc3ccccc3nc2-1 = 30
